Experimental target: human M4 muscarinic acetylcholine receptor (Homo sapiens)
Construct: expressed in transfected cells; host or cells: CHO-K1
Sequence (P08173 whole entry): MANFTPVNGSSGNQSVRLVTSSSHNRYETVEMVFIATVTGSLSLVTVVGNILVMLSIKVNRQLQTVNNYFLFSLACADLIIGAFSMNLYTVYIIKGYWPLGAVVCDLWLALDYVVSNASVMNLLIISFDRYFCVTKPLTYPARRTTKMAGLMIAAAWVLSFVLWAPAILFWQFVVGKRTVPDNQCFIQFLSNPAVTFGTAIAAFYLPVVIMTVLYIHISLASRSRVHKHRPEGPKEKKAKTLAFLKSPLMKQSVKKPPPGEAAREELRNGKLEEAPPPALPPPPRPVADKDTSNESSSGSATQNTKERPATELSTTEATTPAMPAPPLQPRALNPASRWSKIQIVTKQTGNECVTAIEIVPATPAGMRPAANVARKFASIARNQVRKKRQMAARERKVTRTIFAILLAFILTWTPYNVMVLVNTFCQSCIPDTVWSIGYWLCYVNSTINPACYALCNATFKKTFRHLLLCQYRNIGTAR
Protocol summary: human FLIPR-based M4 PAM assay (CHO-K1 cells with human M4 receptor and Gaqi5, calcium dye fluorescence)
Format: cell-based
Setup conditions: inflection point (IP) of dose response curve, acetylcholine added at 20% of maximum response, read-out: M4 FLIPPR Hu IP
The entries below are paired with their reported EC50.
Measure name: EC50 (nM)

1. CC1(Cn2cc(-c3ccc(C#N)nc3-c3ccn4cc(CO)nc4c3)cn2)CCCC1    20
2. COc1cc2ccc(-c3nc(C)c(C#N)cc3-c3cnn(CC4(C)CCCC4)c3)cc2nn1    17
3. Cn1nnc2cc(-c3nc(C#N)ccc3-c3cnn(CC4(C)CCCC4)c3)ccc21    27
4. Cc1cn2ccc(-c3nc(C#N)c(Cl)cc3-c3cnn(CC4(C)CCCC4)c3)cc2n1    40
5. Cc1ccc(-c2cnn(CC3(F)CCCC3)c2)c(-c2cnc3c(c2)ncn3C)n1    187
6. CN1Cc2ncc(-c3nc(C#N)ccc3-c3cnn(CC4(F)CCCC4)c3)cc2C1=O    45
7. CC1(Cn2cc(-c3c(C#N)ccnc3-c3ccc4cccnc4c3)cn2)CCCC1    45
8. Cc1nc2ccc(-c3nc(C#N)ccc3-c3cnn(CC4(F)CCCC4)c3)cn2n1    110
9. Cc1nc2cc(-c3ncc(F)cc3-c3cnn(CC4(F)CCCC4)c3)ccn2c1C    68
10. N#Cc1nc(-c2ccn3cc(C(F)(F)F)nc3c2)c(-c2cnn(CC3(F)CCCC3)c2)cc1F    33
11. CC1(Cn2cc(-c3ccc(C#N)nc3-c3ccc4cc(N5CCC5)cnc4c3)cn2)CCCC1    45
12. N#Cc1ccc(-c2nc(C#N)ccc2-c2cnn(CC3CCCC3)c2)cc1    48
13. CC1(Cn2ncc(-c3ccc(C#N)nc3-c3ccn4ccnc4c3)c2C#N)CCCC1    54
14. Cc1ccc(-c2cnn(CC3CCCC3)c2)c(-c2ccc3cc(I)nnc3c2)n1    14
15. Cc1cn2ccc(-c3ncccc3-c3cnn(CC4C[C@@H](F)[C@H](F)C4)c3)cc2n1    87
16. N#Cc1ccc(-c2cnn(CC3(F)CCCC3)c2)c(-c2ccc3conc3c2)n1    62
17. Cc1ccc(-c2cnn(CC34CCC(CC3)C4)c2)c(-c2ccc3cccnc3c2)n1    10
18. Cc1ccc(-c2nc(C)ccc2-c2cnn(CC3CCCC3)c2)cc1    72
19. COc1cnc2cc(-c3nc(C)ccc3-c3cnn(CC4(C)CCCC4)c3)ccc2c1    25
20. CC1(Cn2cc(-c3ccc(C#N)nc3-c3ccn4cncc4c3)cn2)CCCC1    66
21. N#Cc1ccc(-c2cnn(CC3(F)CCCC3)c2)c(-c2cnc3c(c2)C(=O)N(CC2CC2)C3)n1    35
22. Cn1cnc2cc(-c3nc(C#N)ccc3-c3cnn(C[C@@H]4CC[C@@H](F)C4)c3)ccc21    49
23. COc1cc2ccc(-c3nc(C)ccc3-c3cnn(CC4(C)CCC(=O)C4)c3)cc2nn1 (single isomer, unassigned; isomer a) [Example 149]    200
24. CC1(Cn2cc(-c3ccc(C#N)nc3-c3cnc4c(c3)C(=O)OC4)cn2)CCCC1    41
25. CC1(Cn2cc(-c3cc(F)c(F)nc3-c3ccn4ccnc4c3)cn2)CCCC1    21
26. Fc1cnc(-c2ccn3cc(C(F)(F)F)nc3c2)c(-c2cnn(CC3(F)CCCC3)c2)c1    82
27. CC1(C)NC(=O)c2cc(-c3nc(C#N)ccc3-c3cnn(CC4(F)CCCC4)c3)ccc21    102
28. Cc1ccc(-c2cnn(CC3CCC(F)(F)C3)c2)c(-c2ccc3cccnc3c2)n1 (stereo not drawn) [Example 28]    40
29. Cc1ccc(-c2cnn(CC3(F)CCCC3)c2F)c(-c2cnc3c(c2)ncn3C)n1    121
30. Cc1ccc(-c2cnn(CC3CCCC3)c2)c(-c2ccc3oc(C)nc3c2)n1    46
31. COCc1cn2ccc(-c3nc(C#N)ccc3-c3cnn(CC4(C)CCCC4)c3)cc2n1    29
32. CC1(Cn2cc(-c3ccc(C#N)nc3-c3ccc4ccc(Cl)nc4c3)cn2)CCCC1    78
33. Cc1cc(-c2cnn(CC3(F)CCCC3)c2)c(-c2cnc3c(c2)ncn3C)nc1Cl    45
